src = patent US7456170B2

biological target: UniProt:P37288; assay: V1A filter binding assay ([3H]-AVP binding to CHO-hV1A membranes)
metric: Ki (nM)
Only the number, expressed in nM, is required.

Query: // query Ki value for entry CS(=O)(=O)N1Cc2cc(Cl)ccc2-n2c(nnc2N2CCC(c3ccccn3)CC2)C1
Result: 0.62

---

target: human V1A receptor (Homo sapiens); experiment: V1A filter binding assay ([3H]-AVP binding to CHO-hV1A membranes); details: [3H]-AVP binding to CHO-hV1A membranes; screen 1.0; read-out: Ki
Sequence (P37288 whole entry): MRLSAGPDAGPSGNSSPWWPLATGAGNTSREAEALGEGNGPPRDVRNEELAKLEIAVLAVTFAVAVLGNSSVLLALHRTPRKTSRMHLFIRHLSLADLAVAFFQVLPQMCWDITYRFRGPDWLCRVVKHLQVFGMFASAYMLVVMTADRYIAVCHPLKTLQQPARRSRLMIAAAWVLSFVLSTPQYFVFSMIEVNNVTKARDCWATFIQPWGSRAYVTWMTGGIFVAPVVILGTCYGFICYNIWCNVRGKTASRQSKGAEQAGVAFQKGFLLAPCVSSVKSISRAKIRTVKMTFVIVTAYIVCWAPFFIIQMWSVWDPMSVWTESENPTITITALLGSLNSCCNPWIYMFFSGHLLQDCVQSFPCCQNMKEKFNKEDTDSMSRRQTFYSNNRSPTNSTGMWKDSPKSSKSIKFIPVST
metric: pKi
Scale note: pKi = -log10(concentration in M).

{"smiles entry": "CS(=O)(=O)N1Cc2cc(Cl)ccc2-n2c(nnc2N2CCC(c3ccccc3)CC2)C1", "pKi": 9.77}

Query: Query pKi on human V1A receptor (Homo sapiens) for CN(C)S(=O)(=O)N1Cc2cc(Cl)ccc2-n2c(nnc2N2CCC(c3ccccc3)CC2)C1
Result: 9.44
